Biological target: acetylcholine receptor
Assay: SPR, receptor immobilized, peptide 10 uM
MEASURED_QUANTITY: Binding affinity (RU)

{"BINDER": "RHCGKR [6mer-2-835]", "UNIT_OF_MEASURE": "RU", "Binding affinity (RU)": 20}
{"BINDER": "KYHGK [5mer-788]", "UNIT_OF_MEASURE": "RU", "Binding affinity (RU)": 16}
{"BINDER": "RMKFKR [6mer-2-830]", "UNIT_OF_MEASURE": "RU", "Binding affinity (RU)": 21}
{"BINDER": "RKTWRR [6mer-2-833]", "UNIT_OF_MEASURE": "RU", "Binding affinity (RU)": 14}
{"BINDER": "KPTIR [5mer-785]", "UNIT_OF_MEASURE": "RU", "Binding affinity (RU)": 31}
{"BINDER": "RAPWR [5mer-1062]", "UNIT_OF_MEASURE": "RU", "Binding affinity (RU)": 24}
{"BINDER": "RFHWRR [6mer-2-894]", "UNIT_OF_MEASURE": "RU", "Binding affinity (RU)": 22}
{"BINDER": "KMKEKR [6mer-2-845]", "UNIT_OF_MEASURE": "RU", "Binding affinity (RU)": 14}
{"BINDER": "KAKKK [5mer-1088]", "UNIT_OF_MEASURE": "RU", "Binding affinity (RU)": 16}
{"BINDER": "KDWPK [5mer-1072]", "UNIT_OF_MEASURE": "RU", "Binding affinity (RU)": 32}

P = KAEKR [5mer-1095]
Q = RKVVTR [6mer-1-138]
Short answer wanted: higher Binding affinity (RU), P or Q ? Indicate which entry you chose by stating its label.
Q
(Q: 124 RU, P: 27 RU)
